Tested on: K4 kissing-loop RNA reporter;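 further: bound reporter read as fluorescence of individual clusters on recovered sequencing chips by microscopy, with normalized cluster intensities fitted with a binding model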
assay-method-text: apparent KD of K4 kissing-loop reporter; higher = weaker reporter binding
test-context: Eterna round: R107; input ligand: arginine 13.2 mM
Entries annotated with measured apparent KD of K4 kissing-loop reporter
State the answer as a number, implicitly in µM.

Observe how each entry below is paired with its result.
{"columns": ["residue-codes", "target-under-test", "readout-name", "unit-annotation", "readout-number"],
 "data": [
  ["AUAGAAAAGUGGCACCCUCACUAAAACAGUCGAGGACCGGUACGGCCGCCACUCGCGCGCUUUAGUGAUGUUAAAGCUAUGCAAA", "K4 kissing-loop RNA reporter", "apparent KD of K4 kissing-loop reporter", "µM", 0.358],
  ["AUUUAGACGAGUGAUGUUCGUGUUAAUACAGAGGAUAUGCGUGAUUGCAGAAGGCUGUAUUUAUAUAUGUUAUGUGGUUUUAAAA [whbob_Ex_FMNA__2th187]", "K4 kissing-loop RNA reporter", "apparent KD of K4 kissing-loop reporter", "µM", 0.115]
]}

May I ask what apparent KD of K4 kissing-loop reporter has been recorded for AUACACGUUGCGGCCGCCACUUCGAUUAGUGAUGUUAGGUGUAAGCAGGCGCUGCAUUAAUGUGAAAGGACCGGGCAGAGUAAGC [theeternabot_exclusion_KL_Trp_B_39] ?
0.114

* * *

Entries annotated with measured apparent KD of MS2 coat protein
Test system: MS2 coat protein
assay-method-text: apparent KD of MS2 coat protein; designed switch direction (-1 OFF switch, 1 ON switch): 1; higher = weaker reporter binding
test-context: input ligand: FMN 200 uM
State the answer as a number, implicitly in nM.

Observe how each entry below is paired with its result.
{"columns": ["residue-codes", "readout-name", "readout-number"],
 "data": [
  ["AAAGACAUGGUGCAGGAUAUAUUAAUAGUCACAUGAGGAUCACCCAUGUUCAGAUAUCUGAACGAGUAGAAGGGCGAUGAAAAAA [SameState2 Malc#5] (Eterna round: R96, puzzle: Same State 2)", "apparent KD of MS2 coat protein", 530],
  ["CCGUAGAUGGUAGGAUAUGGAGCCUUAUUGGCUCCAGAAGGAUCUAAAACAUGAGGAUCACCCAUGUCGGCGGUCAAUAGACCG [Eli NG1ss - 83] (Eterna round: R96, puzzle: Same State NG 1)", "apparent KD of MS2 coat protein", 67.2]
]}

May I ask what apparent KD of MS2 coat protein has been recorded for UUAAUGAUGAUAGGAUAUACAUGAGGAAUCCUCGUAGAAGGAUCAUGACAUGAGGAUCACCCAUGUAACGCUCCGUAGAGCGUA [JL SSNG1 1.16] (Eterna round: R96, puzzle: Same State NG 1) ?
220

May I ask what apparent KD of MS2 coat protein has been recorded for UGGCUGGUGCUAGGAUAUACAUGAGGAAUCCUCGUAGAAGGAUCACGACAUGAGGAUCACCCAUGUAGCCGUCCGUAGACGGCU [salish99_SSNG1_r04_006] (Eterna round: R96, puzzle: Same State NG 1) ?
1930

May I ask what apparent KD of MS2 coat protein has been recorded for GUGACCUCCCUAGGAUAUCGCCAAAUGUGAUGUCGACAUGAGGAUCACCCAUGUAUAGUCACGAACGAGAAGGAGGGUGUGGCA [Cesodi] (Eterna round: R96, puzzle: Same State NG 2) ?
15.6

May I ask what apparent KD of MS2 coat protein has been recorded for GGUGGGUUACUACCCACACAUGAGGAUCACCCAUGUAUUGGGAAGGAUAUGGUACCUAUUUGGUACCAGAAGGUCCUGAAGGUG [SS-NG3-LRO16] (Eterna round: R96, puzzle: Same State NG 3) ?
638

May I ask what apparent KD of MS2 coat protein has been recorded for AGCUAUUAAUCAGGAUAUAGUGACAUGAGGAUCACCCAUGUAUUGAUGAUGAAAUGUGGUCGCCGCUAGAAGGGAUUACUAACA [SameState NG2 #45] (Eterna round: R96, puzzle: Same State NG 2) ?
75.1

May I ask what apparent KD of MS2 coat protein has been recorded for ACAUGAAAUUCAGGAUAUUUUGUACCUACAUGUGACAUGAGGAUCACCCAUGUGGUAAGUAUGAGAAAGAAGGGAAAGAUAUGU [Equivalence 10 - Jieux - Same State NG 2] (Eterna round: R96, puzzle: Same State NG 2) ?
25.4

May I ask what apparent KD of MS2 coat protein has been recorded for GGUCCAGCCUGAGCUGGACAAAAGCAUGUACAUGAGGAUCACCCAUGUCAUGUACAAGCUUUUUGCUCGUCUUAAAA [Mat - Sensor - JL mod - D87] (Eterna round: R96, puzzle: Sensor for hsa-mir-208a) ?
586

May I ask what apparent KD of MS2 coat protein has been recorded for AAACCACAUGAGGAUCACCCAUGUAAAAAUAUGGGAGGAUAUCGGAAUAAAAUAAAGAAACGAGAAGGCCUAAAAA [59%, Flamingo, 5] (Eterna round: R96, puzzle: Same State 1) ?
26.6

May I ask what apparent KD of MS2 coat protein has been recorded for AUUCGUUUGAUAGGAUAUCGCUAUACAUGAGGAUCACCCAUGUUUACCACGCUGGUUUUUCGUACCGAGAAGGAUUCUGAUGAU [JL JR sub007 mod 3] (Eterna round: R96, puzzle: Same State NG 2) ?
35.4

May I ask what apparent KD of MS2 coat protein has been recorded for UUAAUGAUGAUAGGAUAUACAUGAGGAAUUCUCGUAGAAGGAUCAUGACAUGAGGAUCACCCAUGUAACGCUCCGUAGAGCGUA [JL SSNG1 1.15] (Eterna round: R96, puzzle: Same State NG 1) ?
572

May I ask what apparent KD of MS2 coat protein has been recorded for GGAUGACGGACAGGAUAUUGGUGCUAAUGGUGUCAAGAAGGGUCUUCGAUAUAUACGACCAGUUACAUGAGGAUCACCCAUGUU [JR_SSNG1_Sub034] (Eterna round: R96, puzzle: Same State NG 1) ?
20.2

May I ask what apparent KD of MS2 coat protein has been recorded for CGUAGGAUAUGCAGAGGAUCACCCUGUAGAAGGACGAUUACGUAGGAUAUGCAGAGGAUCACCCUGUAGAAGGACGACUAAUCU [pwkr ssNG3 DX 2xF5 +2xFMN.2] (Eterna round: R96, puzzle: Same State NG 3) ?
174

May I ask what apparent KD of MS2 coat protein has been recorded for AUUUUUAAUGCAGGAUAUGAUUAACAUGAGGAUCACCCAUGUGGUGUUGUGAGUAAGGAGAGUGAUCAGAAGGGCAUUUUUUUG [JMF's solution 90] (Eterna round: R96, puzzle: Same State NG 2) ?
753
